Data origin: ChEMBL document CHEMBL1201862

System: Hs-578T
assay comment: NCI tumour cell line growth inhibition, 48 h
Active and inactive are the calls of the source. Rule as the data show it: active = GI50 up to about 1.1 µM and inactive = higher.
Listing of recorded GI50 by entry.

Solved cases (3 shown):
compound=CCN(CC)CCCNc1nnc(C)c2[nH]c3ccccc3c12 target_under_test=Hs-578T recorded_value="15.4 µM (inactive)"
compound="C#CC(O)/C=C/C(O)CCCC(O)CC#CC(O)C#CCCCCC(O)/C=C/CCCC(O)/C=C/CCCCCCCCCCCCCC(O)C(O)C#CC(=O)O (centres undefined)" target_under_test=Hs-578T recorded_value="> 25 µM (inactive)"
compound="COC(CC1(CCNc2ccccc2)C(=O)N(COCC[Si](C)(C)C)c2ccccc21)OC (centres undefined)" target_under_test=Hs-578T recorded_value="18 µM (inactive)"

Consider now this further compound.
QUERY: Would you mind telling me what GI50 value was observed for `C=CC[C@]12C[C@@H](C(=O)OC)N(C(=O)OC)[C@H]1N(S(=O)(=O)c1ccccc1)c1ccccc12` ?
RESULT: 42.9 µM (inactive)

---

System: SF-295
assay comment: NCI tumour cell line growth inhibition, 48 h
Activity calls are given as the source filed them. Cut-off read from the data, not from the text of the source: active = GI50 up to about 1.1 µM and inactive = higher.
Listing of recorded GI50 by entry.

molecule="COc1c(C(C)C)cc2c3c1OC(=O)[C@@]31CCCC(C)(C)C1CC2 (stereo partly specified)" quantity_name=GI50 recorded_value="24.5 µM (inactive)"
molecule="CC(C)c1cc2c(cc1S(=O)(=O)O)[C@@]1(C)CCC[C@@](C)(C(=O)O)C1CC2 (stereo partly specified)" quantity_name=GI50 recorded_value="> 100 µM (inactive)"
molecule=CCc1cc(-c2nsc(=O)o2)c(S(=O)(=O)CC)s1 quantity_name=GI50 recorded_value="> 100 µM (inactive)"
molecule=CCOC(=O)c1c2c(n(C)c1-c1ccccc1)C(=O)C(C)=CC2=O quantity_name=GI50 recorded_value="19 µM (inactive)"
molecule=COc1ccc(OC)c(/C(C)=N/NC(N)=S)c1 quantity_name=GI50 recorded_value="> 100 µM (inactive)"

QUERY: Would you mind telling me what GI50 value was observed for `CC(C)(C)c1cc2ccc(C(N)=O)cc2c(=O)[nH]1` ?
RESULT: > 100 µM (inactive)

QUERY: Next molecule up: `Cl/C(=C\C=N\c1ccc(I)cc1)c1ccc2ccccc2c1`
RESULT: 19.1 µM (inactive)

QUERY: Next molecule up: `CC1=C(C(=O)Nc2ccccc2)C(c2cccc3ccccc23)C(C(=O)Nc2ccccc2)=C(C)N1`
RESULT: 17.5 µM (inactive)

QUERY: Next molecule up: C=C1C(=O)OC2C1CC[C@H](C)C13OC(=O)CC1[C@@]23C (stereo partly specified)
RESULT: > 100 µM (inactive)

QUERY: Next molecule up: `O=S(=O)(/N=C(\NO)Nc1ccc(Cl)cc1)c1ccc(-c2ccccn2)s1`
RESULT: 52.1 µM (inactive)

QUERY: Next molecule up: `O=C(C=P(c1ccccc1)(c1ccccc1)c1ccccc1)c1ccc(-c2ccc(F)cc2F)cc1`
RESULT: 3.15 µM (inactive)

QUERY: Next molecule up: `COc1cc2nc(-c3cccs3)nc(N3C(c4cc(OC)c(OC)c(OC)c4)=NNC(=O)c4ccccc43)c2cc1OC`
RESULT: 17.9 µM (inactive)

QUERY: Next molecule up: `O=C(N/N=C/c1cc(-c2ccccc2Cl)c(-c2ccccc2Cl)o1)c1ccncc1`
RESULT: > 100 µM (inactive)

QUERY: Next molecule up: `CC1=NN(c2ccccc2)C(=O)C1=C1SCCCS1`
RESULT: 27.2 µM (inactive)

QUERY: Next molecule up: `CC(C)(CO)CNc1nc(N)nc(Cl)c1N`
RESULT: > 100 µM (inactive)

QUERY: Next molecule up: O=C(Nc1ccc(Cl)cc1Cl)C(=O)C(C(=O)c1ccncc1)C1OC(=O)c2ccccc21 (stereo unspecified)
RESULT: > 100 µM (inactive)

---

Tested on: OVCAR-5
assay comment: NCI tumour cell line growth inhibition, 48 h
Activity calls are given as the source filed them. No stated cut-off is given here; in the data, active = GI50 up to about 1.1 µM and inactive = higher.
Hi there, use one of these labels in your reply, thanks! 1 (yes) for active, 0 (no) for inactive

// known answers, use as guide
compound=O=C(/C=C/c1ccsc1)c1ccco1 discrete_label="0 (no)"
compound=Cc1ccc(-[n+]2cc([O-])on2)cc1 discrete_label="0 (no)"
compound=NC(=O)NNc1nc(-c2ccccc2)cs1 discrete_label="0 (no)"
compound="CNc1cc2c(c3ccccc13)C(CCl)CN2C(=O)c1cc2cc(OC)c(OC)c(OC)c2[nH]1 (configuration not stated)" discrete_label="1 (yes)"
compound="CC1=C(/C=C/Cl)CC(Cl)C(C)(Cl)C1 (configuration not stated)" discrete_label="0 (no)"
compound=CCc1cc(-c2nsc(=O)o2)c(S(=O)(=O)CC)s1 discrete_label="0 (no)"
compound=CCOC(=O)c1ccc(/N=c2\oc3ccc(OC)cc3cc2-c2nc3ccccc3[nH]2)cc1 discrete_label="0 (no)"
compound="COC1(O)C(=O)c2ccccc2OC1(OC)c1ccccc1 (configuration not stated)" discrete_label="0 (no)"
compound="COc1cc(C2C(Cl)C(=O)N2NC(=O)c2ccc(NC(C)=O)cc2)ccc1O (configuration not stated)" discrete_label="0 (no)"
compound="CC(=O)OCC1OC(c2nc3ccccc3s2)=CC(OC(C)=O)C1OC(C)=O (configuration not stated)" discrete_label="0 (no)"

QUERY: Each compound tested received a call. Report the one for Nc1nncc2c1ccn2C1OC(CO)C(O)C1O (configuration not stated) .
RESULT: 0 (no)

QUERY: Next compound up: `Clc1ccc(CN2COc3c(cc(Cl)c4cccnc34)C2)cc1`
RESULT: 0 (no)

QUERY: Next compound up: `CN(C)NC1=NS(=O)(=O)c2cc3c(=O)n(C)[nH]c3cc2S1`
RESULT: 0 (no)

QUERY: Next compound up: `COc1ccc(-c2csc(Cc3nc4ccccc4c(=O)n3-c3ccc(Cl)cc3)n2)cc1`
RESULT: 0 (no)

QUERY: Next compound up: `C=C[C@H]1CN2CCc3c([nH]c4cc(O)ccc34)[C@@H]2C[C@@H]1C[C@H]1c2[nH]c3ccccc3c2CCN1C`
RESULT: 0 (no)

---

Tested on: NCI-H460
assay comment: NCI tumour cell line growth inhibition, 48 h
Active and inactive are the calls of the source. No stated cut-off is given here; in the data, active = GI50 up to about 1.1 µM and inactive = higher. Non-standard residues stand in square brackets, D forms with d. Residues, ends and D or L forms follow the SMILES beside them. *: point of attachment. NMeF = CN[CH](Cc1ccccc1)C(=O)O; NMeV = CN[CH](C(=O)O)C(C)C; Boc = CC(C)(C)OC(=O)*
Hi there, use one of these labels in your reply, thanks! T for active, F for inactive

// known answers, use as guide
compound=Cc1cc(C)n(CN(CCCCO)Cn2nc(C)cc2C)n1 discrete_label=F
compound="CC(C)C(NC(=O)OC(C)(C)C)C(=O)N(C)C(Cc1ccccc1)C(=O)N(C)C(C(=O)O)C(C)C (stereo not drawn) (Boc-Val-[NMeF]-[NMeV]-OH; configuration not given here)" discrete_label=F
compound=Cc1ncc2c(=O)c3c(oc2n1)c1ccccc1n3Cc1ccccc1 discrete_label=F
compound="CN(C)c1cc[n+](-c2nc([N-]C(=O)C(F)(F)F)nc3c2ncn3C2CC(O)C(CO)O2)cc1 (configuration not stated)" discrete_label=F
compound="CC1=NC2(C(=O)O)C3(C(=O)O)N=C(C)OC3(C(F)(F)F)C2(C(F)(F)F)O1 (configuration not stated)" discrete_label=F

QUERY: Each compound tested received a call. Report the one for CC(C)CCCC(C)[C@H]1CCC2[C@@H]3CCC4Cc5nc6c(nc5C[C@]4(C)C3CC[C@@]21C)CC1CC[C@@H]2C(C[C@@H](O)[C@@]3(C)C2C[C@@H]2OC4(CCC(C)CO4)C(C)[C@@H]23)[C@@]1(C)C6 (some centres not stated) .
RESULT: F

QUERY: Next compound up: `COc1ccc(CC2=NCCc3cc(OC)c(OC)cc32)cc1Br`
RESULT: F

QUERY: Next compound up: C#CC(O)/C=C/C(O)CCCC(O)CC#CC(O)C#CCCCCC(O)/C=C/CCCC(O)/C=C/CCCCCCCCCCCCCC(O)C(O)C#CC(=O)O (configuration not stated)
RESULT: F

---

System: UACC-257
assay comment: NCI tumour cell line growth inhibition, 48 h
Calls of active or inactive are those of the source. Cut-off read from the data, not from the text of the source: active = GI50 up to about 1.1 µM and inactive = higher.
quantity name: GI50

compound=OCc1cc2ccncc2c2c1[nH]c1ccccc12 quantity_name=GI50 recorded_value="14.8 µM (inactive)"
compound=COC(=O)[C@@H]1[C@H](O)[C@H](C)[C@H](O)[C@H](C)/C=C\C=C(\C)C(=O)Nc2c(C)c(OC(C)=O)c3c(c2O)C(=O)C(C)=C2OCOC(=C23)/C(C)=C/[C@@H](O)[C@H](O)[C@@H](C)[C@H]1OC(C)=O quantity_name=GI50 recorded_value="28.3 µM (inactive)"
compound=N#C/C(=C/Sc1ccccc1)C(=O)O quantity_name=GI50 recorded_value="34.4 µM (inactive)"

QUERY: Would you mind telling me what GI50 value was observed for `Cc1ncc2c(=O)c3c(oc2n1)c1ccccc1n3Cc1ccccc1` ?
RESULT: > 100 µM (inactive)

QUERY: Next compound up: Cc1ccc(S(=O)(=O)NC(=O)NC(Cc2c[nH]c3ccccc23)C(=O)O)cc1 (centres undefined)
RESULT: > 100 µM (inactive)

QUERY: Next compound up: Nc1ncnc2c1ncn2C1OC(CO)C(O)C(O)C1O (centres undefined)
RESULT: > 100 µM (inactive)

QUERY: Next compound up: CCC12CCCC(=O)N1C(CO)C(c1ccccc1)O2 (centres undefined)
RESULT: > 100 µM (inactive)

QUERY: Next compound up: CC1=C(/C=C/Cl)CC(Cl)C(C)(Cl)C1 (centres undefined)
RESULT: > 100 µM (inactive)

QUERY: Next compound up: `CO/C=C/c1cc2c(cc1C(OC)OC)OCO2`
RESULT: > 100 µM (inactive)
